conditions: 288.15 K; 100.5 kPa; Liquid
experimental readout: mass density (kg/m3)

compound: CCC(=O)OCc1ccccc1 [benzyl propanoate]
mass density / kg/m3: 1036.86
//
compound: CCO [ethanol]
mass density / kg/m3: 793.6
//
compound: CCOC(=O)CC(C)C [ethyl 3-methylbutanoate]
mass density / kg/m3: 869.66
//
compound: CC(=O)OCc1ccccc1 [benzyl ethanoate]
mass density / kg/m3: 1060.11
//
compound: CCOC(=O)CC(C)=O [ethyl 3-oxobutanoate]
mass density / kg/m3: 1033.92
//
compound: CCOC(=O)c1ccccc1O [ethyl 2-hydroxybenzoate]
mass density / kg/m3: 1134.72
//
compound: COC(=O)c1ccccc1 [methyl benzoate]
mass density / kg/m3: 1093.23

====

test: xn = mol fraction of the nth substance listed; settings: 298.15 K; 100.5 kPa; Liquid; x1 = 0.6
experimental readout: mass density (kg/m3)

molecule: CCOC(=O)c1ccccc1O [ethyl 2-hydroxybenzoate] + CCO
mass density / kg/m3: 1055.57

molecule: CC(=O)OCc1ccccc1 [benzyl ethanoate] + CCO
mass density / kg/m3: 995.21

molecule: CCC(=O)OCc1ccccc1 [benzyl propanoate] + CCO
mass density / kg/m3: 981.17

molecule: CCOC(=O)CC(C)=O [ethyl 3-oxobutanoate] + CCO
mass density / kg/m3: 967.55

molecule: CCOC(=O)CC(C)C [ethyl 3-methylbutanoate] + CCO
mass density / kg/m3: 843.59

molecule: COC(=O)c1ccccc1 [methyl benzoate] + CCO
mass density / kg/m3: 1014.81

====

test: xn = mol fraction of the nth substance listed; settings: 318.15 K; 100.5 kPa; Liquid; x1 = 0.55
experimental readout: mass density (kg/m3)

compound: CCOC(=O)CC(C)C [ethyl 3-methylbutanoate] + CCO
mass density / kg/m3: 820.95

compound: CC(=O)OCc1ccccc1 [benzyl ethanoate] + CCO
mass density / kg/m3: 966.52

compound: CCOC(=O)c1ccccc1O [ethyl 2-hydroxybenzoate] + CCO
mass density / kg/m3: 1023.85

compound: COC(=O)c1ccccc1 [methyl benzoate] + CCO
mass density / kg/m3: 983.88

compound: CCOC(=O)CC(C)=O [ethyl 3-oxobutanoate] + CCO
mass density / kg/m3: 937.75

compound: CCC(=O)OCc1ccccc1 [benzyl propanoate] + CCO
mass density / kg/m3: 954.12

====

assay: xn = mol fraction of the nth substance listed; conditions: 288.15 K; 100.5 kPa; Liquid; x1 = 0.55
experimental readout: mass density (kg/m3)

compound: CCOC(=O)CC(C)C [ethyl 3-methylbutanoate] + CCO
mass density, kg/m3: 850.72

compound: COC(=O)c1ccccc1 [methyl benzoate] + CCO
mass density, kg/m3: 1012.94

compound: CCOC(=O)c1ccccc1O [ethyl 2-hydroxybenzoate] + CCO
mass density, kg/m3: 1053.4

compound: CCC(=O)OCc1ccccc1 [benzyl propanoate] + CCO
mass density, kg/m3: 982.43

compound: CCOC(=O)CC(C)=O [ethyl 3-oxobutanoate] + CCO
mass density, kg/m3: 968.53

compound: CC(=O)OCc1ccccc1 [benzyl ethanoate] + CCO
mass density, kg/m3: 995.2

====

experiment: xn = mol fraction of the nth substance listed; settings: 308.15 K; 100.5 kPa; Liquid; x1 = 0.9
experimental readout: mass density (kg/m3)

compound: CC(=O)OCc1ccccc1 [benzyl ethanoate] + CCO
mass density [kg/m3]: 1029.98
//
compound: CCOC(=O)CC(C)C [ethyl 3-methylbutanoate] + CCO
mass density [kg/m3]: 846.34
//
compound: CCOC(=O)CC(C)=O [ethyl 3-oxobutanoate] + CCO
mass density [kg/m3]: 1001.3
//
compound: CCC(=O)OCc1ccccc1 [benzyl propanoate] + CCO
mass density [kg/m3]: 1008.96
//
compound: COC(=O)c1ccccc1 [methyl benzoate] + CCO
mass density [kg/m3]: 1059.87
//
compound: CCOC(=O)c1ccccc1O [ethyl 2-hydroxybenzoate] + CCO
mass density [kg/m3]: 1101

====

test: xn = mol fraction of the nth substance listed; conditions: 308.15 K; 100.5 kPa; Liquid; x1 = 0.2
experimental readout: mass density (kg/m3)

compound: CC(=O)OCc1ccccc1 [benzyl ethanoate] + CCO
measurement units: kg/m3
mass density: 879.1
--
compound: CCOC(=O)CC(C)=O [ethyl 3-oxobutanoate] + CCO
measurement units: kg/m3
mass density: 859.89
--
compound: CCOC(=O)CC(C)C [ethyl 3-methylbutanoate] + CCO
measurement units: kg/m3
mass density: 804.39
--
compound: CCC(=O)OCc1ccccc1 [benzyl propanoate] + CCO
measurement units: kg/m3
mass density: 876.6
--
compound: COC(=O)c1ccccc1 [methyl benzoate] + CCO
measurement units: kg/m3
mass density: 883.02
--
compound: CCOC(=O)c1ccccc1O [ethyl 2-hydroxybenzoate] + CCO
measurement units: kg/m3
mass density: 910.21

====

assay: xn = mol fraction of the nth substance listed; conditions: 308.15 K; 100.5 kPa; Liquid; Capillary tube (Ostwald / Ubbelohde) method; x1 = 0.2
experimental readout: viscosity (mPa·s)

compound: CCOC(=O)CC(C)C [ethyl 3-methylbutanoate] + CCO
viscosity / mPa·s: 0.718
--
compound: COC(=O)c1ccccc1 [methyl benzoate] + CCO
viscosity / mPa·s: 0.94
--
compound: CC(=O)OCc1ccccc1 [benzyl ethanoate] + CCO
viscosity / mPa·s: 0.967
--
compound: CCC(=O)OCc1ccccc1 [benzyl propanoate] + CCO
viscosity / mPa·s: 1.009
--
compound: CCOC(=O)CC(C)=O [ethyl 3-oxobutanoate] + CCO
viscosity / mPa·s: 0.837

====

test: xn = mol fraction of the nth substance listed; conditions: 318.15 K; 100.5 kPa; Liquid; Capillary tube (Ostwald / Ubbelohde) method; x1 = 0.15
experimental readout: viscosity (mPa·s)

compound: CC(=O)OCc1ccccc1 [benzyl ethanoate] + CCO
viscosity (mPa·s): 0.796
//
compound: CCOC(=O)CC(C)=O [ethyl 3-oxobutanoate] + CCO
viscosity (mPa·s): 0.709
//
compound: CCOC(=O)CC(C)C [ethyl 3-methylbutanoate] + CCO
viscosity (mPa·s): 0.638
//
compound: COC(=O)c1ccccc1 [methyl benzoate] + CCO
viscosity (mPa·s): 0.782
//
compound: CCC(=O)OCc1ccccc1 [benzyl propanoate] + CCO
viscosity (mPa·s): 0.819

====

experiment: xn = mol fraction of the nth substance listed; conditions: 308.15 K; 100.5 kPa; Liquid; x1 = 0.05
experimental readout: mass density (kg/m3)

compound: CCOC(=O)CC(C)=O [ethyl 3-oxobutanoate] + CCO
mass density (kg/m3): 800.94
//
compound: COC(=O)c1ccccc1 [methyl benzoate] + CCO
mass density (kg/m3): 807.97
//
compound: CCOC(=O)c1ccccc1O [ethyl 2-hydroxybenzoate] + CCO
mass density (kg/m3): 817.7
//
compound: CCOC(=O)CC(C)C [ethyl 3-methylbutanoate] + CCO
mass density (kg/m3): 784.95
//
compound: CCC(=O)OCc1ccccc1 [benzyl propanoate] + CCO
mass density (kg/m3): 807.99
//
compound: CC(=O)OCc1ccccc1 [benzyl ethanoate] + CCO
mass density (kg/m3): 807.83

====

test: xn = mol fraction of the nth substance listed; details: 288.15 K; 100.5 kPa; Liquid; Capillary tube (Ostwald / Ubbelohde) method; x1 = 0.8
experimental readout: viscosity (mPa·s)

// known answers, use as guide
molecule: COC(=O)c1ccccc1 [methyl benzoate] + CCO
experimental readout: viscosity
observed measurement: 1.942
--
molecule: CC(=O)OCc1ccccc1 [benzyl ethanoate] + CCO
experimental readout: viscosity
observed measurement: 2.163
--
molecule: CCC(=O)OCc1ccccc1 [benzyl propanoate] + CCO
experimental readout: viscosity
observed measurement: 2.23

A = CCOC(=O)CC(C)=O [ethyl 3-oxobutanoate] + CCO
B = CCOC(=O)CC(C)C [ethyl 3-methylbutanoate] + CCO
Q: For this pair, A and B , which shows a numerically higher viscosity? Field: selected label. Fill in the label of the entry you choose.
A: A
(A: 1.65 mPa·s, B: 0.83 mPa·s)

====

experiment: xn = mol fraction of the nth substance listed; settings: 308.15 K; 100.5 kPa; Liquid; Capillary tube (Ostwald / Ubbelohde) method; x1 = 0.1
experimental readout: viscosity (mPa·s)

compound: COC(=O)c1ccccc1 [methyl benzoate] + CCO
measurement units: mPa·s
viscosity: 0.915

compound: CCOC(=O)CC(C)=O [ethyl 3-oxobutanoate] + CCO
measurement units: mPa·s
viscosity: 0.841

compound: CCC(=O)OCc1ccccc1 [benzyl propanoate] + CCO
measurement units: mPa·s
viscosity: 0.949

compound: CC(=O)OCc1ccccc1 [benzyl ethanoate] + CCO
measurement units: mPa·s
viscosity: 0.92

compound: CCOC(=O)CC(C)C [ethyl 3-methylbutanoate] + CCO
measurement units: mPa·s
viscosity: 0.793

Recorded values, source the NIST ThermoML archive (doi:10.1021/je050402s).
